Values from paper PMC6547421

Tested System: T1, ExoG-H140A/F168A (Homo sapiens, UniProt Q9Y2C4 42-368, H140A;F168A)
T1 sequence: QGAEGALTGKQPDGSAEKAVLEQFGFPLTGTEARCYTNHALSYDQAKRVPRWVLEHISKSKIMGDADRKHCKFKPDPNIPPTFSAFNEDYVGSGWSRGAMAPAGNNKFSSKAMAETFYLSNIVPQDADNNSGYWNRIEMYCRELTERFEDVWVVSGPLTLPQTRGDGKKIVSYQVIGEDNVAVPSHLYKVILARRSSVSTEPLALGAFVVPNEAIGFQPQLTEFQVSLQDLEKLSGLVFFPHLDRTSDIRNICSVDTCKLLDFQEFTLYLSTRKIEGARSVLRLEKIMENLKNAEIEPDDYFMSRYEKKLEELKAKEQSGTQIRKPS
Assay Info: fluorescence polarization; 2.5 mM Mg2+; FP: 10 nM FAM substrate, 10 mM HEPES pH 7.4, 150 mM NaCl, 2.5 mM MgCl2; temperature not stated
Assay Conditions: protein: recombinant; tags: N-terminal His; chain copies: 2; label: 3'-FAM strand 1; 5'-biotin strand 2; 20-bp duplex, 26-nt 3' overhang on strand 2
Property: pKd
Scale explanation: pKd corresponds to minus log10 of a concentration expressed in moles per litre.

RNA/DNA (DNA:RNA, strand 1 RNA with 5'-phosphate; strand 2 DNA) RNA: GCUUAACGCUGACUCGCUAC DNA: GTAGCGAGTCAGCGTTAAGCACTATCATAGCCATCTGCCATTACTG; 6.60
DNA/DNA (dsDNA, 5'-phosphate on strand 1) DNA 1: GCTTAACGCTGACTCGCTAC DNA 2: GTAGCGAGTCAGCGTTAAGCACTATCATAGCCATCTGCCATTACTG; 5.41

Let's switch to this binder now.
(Q) Entry under review: R2-DNA/DNA (mixed, strand 1 nt 1-2 (GC) are ribonucleotides, rest DNA; 5'-phosphate on strand 1) DNA 1: GCTTAACGCTGACTCGCTAC DNA 2: GTAGCGAGTCAGCGTTAAGCACTATCATAGCCATCTGCCATTACTG . Reported pKd?
(A) 5.50
